Parameter: viability, T/C. Scope: all listed entries.
System: KRAS-mutant PDC multicell tumor spheroid viability;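 also: viability read after seven days of drug exposure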
Test: Anticancer human tumor 521955-158-R2-J5-PDC patient-derived pancreatic carcinoma cell line growth inhibition [KRAS2]
Conditions: second compound 0.1 µM; first compound 0.1 µM; active compounds read low
Kindly answer with a numeric value in %, unit omitted.

Previously resolved entries follow.
| compound | viability, T/C / % |
| --- | --- |
| CC(=O)OC12COC1CC(O)C1(C)C(=O)C(O)C3=C(C)C(OC(=O)C(O)C(NC(=O)OC(C)(C)C)c4ccccc4)CC(O)(C(OC(=O)c4ccccc4)C21)C3(C)C (stereo not given) + CNCc1ccccc1-c1csc(C(C)Nc2nc(C)nc3cc(OC)c(OC)cc23)c1 | 15.3 |
| Cn1ncnc1[C@H]1c2n[nH]c(=O)c3cc(F)cc(c23)N[C@@H]1c1ccc(F)cc1 + C=CC(=O)N1CCN(c2nc(=O)n(-c3c(C)ccnc3C(C)C)c3nc(-c4c(O)cccc4F)c(F)cc23)C(C)C1 | 79.3 |
| CCN1CCN(Cc2ccc(Nc3ncc(F)c(-c4cc(F)c5nc(C)n(C(C)C)c5c4)n3)nc2)CC1 + CC1OCC2(CCN(c3cnc(Sc4ccnc(N)c4Cl)c(N)n3)CC2)C1N | 61.5 |
| CN(C)C/C=C/C(=O)Nc1cc2c(Nc3ccc(F)c(Cl)c3)ncnc2cc1O[C@H]1CCOC1 + CC1OCC2(CCN(c3cnc(Sc4ccnc(N)c4Cl)c(N)n3)CC2)C1N | 59.3 |

The reported KRAS-mutant PDC multicell tumor spheroid viability viability, T/C of COc1cc(Nc2ncc3c(n2)-c2ccc(Cl)cc2C(c2c(F)cccc2OC)=NC3)ccc1C(=O)O + CC1OCC2(CCN(c3cnc(Sc4ccnc(N)c4Cl)c(N)n3)CC2)C1N is 45.2
